Data credit: PubChem BioAssay (NCI)

System: LOX IMVI melanoma
assay-protocol: NCI-60 one-dose screen, 48 h
measurement-setup: 10 µM unless noted
About 83,000 compounds went through this panel and 20% of them were active in at least one assay; those are over-represented in the sample as a whole. The source made the active and inactive calls. How the source made its calls: active means growth percent below 10; inactive means the rest.
Outcome field: choose from TRUE for active, FALSE for inactive

Answered cases to consult:
CNC(=O)Oc1ccc(N(C)C)cc1C(C)C; FALSE
C=C1C(=O)O[C@H]2[C@H]1CC/C(COC(=O)C(=O)c1cn(Cc3ccccc3)c3ccccc13)=C\CC[C@@]1(C)O[C@@H]21; TRUE
CC[C@H](C)[C@H](NC(=O)[C@H]1CCCCN1C)C(=O)N(C)[C@H](CC(=O)c1nc(C(=O)N[C@@H](Cc2ccccc2)C[C@H](C)C(=O)O)cs1)C(C)C; FALSE
COc1ccc(C(O)(C(=O)O)c2ccc(OC)cc2)cc1; FALSE
CC12CCC(O)CC1=CCC1C2CCC2(C)C(O)CCC12 (stereo unspecified); FALSE

# ---- query molecule ----
# outcome recorded in this test, key = COc1ccc(O)c(CNC(=O)CN2CCCC2=O)c1
FALSE

* * *

Recorded growth values for a group of compounds are listed next.
Test system: OVCAR-4 ovarian
assay-protocol: NCI-60 one-dose screen, 48 h (100 = growth as untreated, 0 = no growth, -100 = all killed)
measurement-setup: 10 µM unless noted
Experimental: Growth inhibition of the OVCAR-4 human tumor cell line is measured as a screen for anti-cancer activity. Cells are grown in 96 well plates and exposed to the test compound for 48 hours. Compounds are tested at a single concentration, which is 10^-5 M for most compounds. The reported endpoint is percent growth (GI% or GIPRCNT), where numbers from 0 - 100% represent growth inhibition, and numbers from -100% - 0 represent cell death. For example, a value of 40 represents 60% growth inhibition. […]
The panel holds about 83,000 compounds, 20% with a hit somewhere; the sample as a whole holds those more often.
// note: answer is a bare numeric in %

Known growth results, listed for orientation:
CN1C(=O)C(=Cc2cn(CCCCCCn3c4ccccc4c(=O)c4ccccc43)c3ccccc23)C(=O)N(C)C1=O; 95.2
Nc1c(F)cc(-c2nc3cc(F)ccc3[se]2)cc1Br; 30.1
COc1cccc2c1c(C(=O)C(=O)Nc1cc(C)no1)cn2Cc1ccc(F)cc1; 90.9
CC12CCC3C(CCC4=CC(=O)CCC43CF)C1CCC2=O (stereo not drawn); 98.8
CC1(C)C(C(=O)c2cn(CCCCF)c3ccccc23)C1(C)C; 107
Cc1c2cc(Cl)c3ccccc3c2c[n+]2ccccc12; 30.3

Checklist item: growth tested on OVCAR-4 ovarian, entry CN(C)CC(C(=O)Cc1ccccc1)c1ccccc1 (stereo not drawn) , value?
91.7

* * *

Test system: A549/ATCC NSCLC
assay-protocol: NCI-60 one-dose screen, 48 h
measurement-setup: 10 µM unless noted
About 83,000 compounds went through this panel and 20% of them were active in at least one assay; those are over-represented in the sample as a whole. The source made the active and inactive calls. The calls were made as follows: active = growth percent below 10; inactive = the rest.
Your response should consist of one outcome taken from active, inactive

# example entries with known answers
CCOC(=O)c1c(C)n(Cc2ccccc2)c2cc(CN(C)C)c(O)cc12; inactive
CC[C@H](C)[C@H](NC(=O)C12C3C4C1C1C2C3C41NC(C)=O)C(=O)N(C)[C@H](C[C@@H](OC(C)=O)c1nc(C(=O)N[C@@H](Cc2ccccc2)C[C@H](C)C(=O)OC)cs1)C(C)C (stereo partly drawn); inactive
COc1cc(C=Nc2cccc(Br)c2)ccc1N(CCCl)CCCl; inactive
CC(C)(C)C(=O)OCOP(=O)(NCc1ccccc1)C1CCCN(O)C1=O (stereo not drawn); inactive
CC[C@H](C)[C@H](NC(=O)[C@H]1CCCCN1C)C(=O)N(C)[C@H](C[C@@H](OC(C)=O)c1nc(C(=O)N[C@@H](Cc2ccccc2)C[C@H](C)C(=O)OC)cs1)C(C)C; active

Outcome? CCC(=O)Nc1ccc(Cl)c(Cl)c1
inactive

// return assay outcome for O=C([O][Hg][CH2]C1OCCOC1[CH2][Hg][O]C(=O)c1ccccc1)c1ccccc1 (stereo not drawn)
inactive

For CN1C(=O)C23CC4(C56CC78SSC(CO)(C(=O)N7C5Nc5ccccc56)N(C)C8=O)c5ccccc5NC4N2C(=O)C1(CO)SS3 (stereo not drawn) , which call appears in the assay record?
active

# lookup: test call for COc1cc([C@@H]2c3cc4c(cc3[C@H](OC(C)=O)[C@H]3COC(=O)[C@@H]23)OCO4)cc(OC)c1OC
inactive

* * *

System: ACHN renal
assay-protocol: NCI-60 one-dose screen, 48 h
measurement-setup: 10 µM unless noted
This is part of a sample that, as a whole, favours compounds with a hit. Of some 83,000 tested, about 20% had one in any assay. Calls of active or inactive are those of the source. The calls were made as follows: active = growth percent below 10; inactive = the rest.
The reply should be one of these categories: YES = active, NO = inactive

Worked examples, 5 compounds total:
CC1[C@H](C)OC(=O)CC(O)CC(O)CC(O)CCC(O)C(O)C[C@]2(O)CC(O)C(C(=O)O)C(CC(OC3O[C@H](C)[C@@H](O)[C@H](N)[C@@H]3O)/C=C/C=C/C=C/C=C/CC/C=C/C=C/[C@H](C)[C@H]1O)O2 (some centres not stated); NO
COc1cc(/C=N/C2=C(C#N)C(c3ccco3)c3c(c4cc(C)ccc4oc3=O)O2)cc(OC)c1OC (configuration not stated); NO
COc1cccc(/C=C/[N+](=O)[O-])c1; NO
O=[N+]([O-])c1ccc(OP(=O)(CCl)N(CCCl)CCCl)cc1 (configuration not stated); NO
Cc1ccccc1NC(=NCCCN1CC1)Nc1ccccc1C; NO

I'd appreciate the recorded outcome for COC(=O)[C@H](C[C@H](Cc1ccccc1)NC(=O)c1csc([C@@H](C[C@H](C(C)C)N(C)C(=O)[C@@H](NC(=O)[C@H]2CCCCN2C)C(C)C)OC(C)=O)n1)NC(=O)OCc1ccccc1 from this test.
NO

# lookup: test call for CCC1CC(O)c2c(O)c3c(c(O)c2C1O)C(=O)c1cccc(O)c1C3=O (configuration not stated) (tested in a mixture with another compound)
YES

* * *

Parameter growth: see the listing below.
System: COLO 205 colon
assay-protocol: NCI-60 one-dose screen, 48 h (100 = growth as untreated, 0 = no growth, -100 = all killed)
measurement-setup: 10 µM unless noted
The panel holds about 83,000 compounds, 20% with a hit somewhere; the sample as a whole holds those more often.
The reply should be a number in %, with the unit left off.

CC1=C(CNO)C2=C(C)C3(CC3)[C@@](C)(O)C(=O)C2=C1; -20.4
CO[C@H]1CC[C@@]2(C)C(=CC[C@@H]3[C@@H]2CC[C@]2(C)C(=O)C(=O)C[C@@H]32)C1; 118
Cc1ccc(N2COOC3(OOC2)C2CC4CC(C2)CC3C4)cc1; 110
Cc1cc(C)c(CBr)c(C)c1; 107
COC(=O)[C@@H](C)C[C@H](Cc1ccccc1)NC(=O)c1nc([C@@H](C[C@H](C(C)C)N(C)C(=O)[C@@H](NC(=O)[C@H]2CCCN2C)C(C)C)OC(C)=O)sc1C; -74.2
O=C(Nc1ccc([N+](=O)[O-])cc1)C(Cl)(Cl)Cl; 107
Cn1cc(-c2csc(-c3cn(CCCCN4CCCCC4)c4ccc(F)cc34)n2)c2cccnc21; 96.7
CC[C@H](C)[C@H](NC(=O)c1ccccn1)C(=O)N(C)[C@H](C[C@@H](OC(C)=O)c1nc(C(=O)N[C@@H](Cc2ccccc2)C[C@H](C)C(=O)OC)cs1)C(C)C; -21.2

What value of measured growth is listed for COc1cc(/C=N/C2=C(C#N)C(c3ccco3)c3c(c4cc(C)ccc4oc3=O)O2)cc(OC)c1OC (stereo not drawn) ?
118

# growth lookup, item COC(=O)[C@@H](C)C[C@H](Cc1ccccc1)NC(=O)c1nc([C@@H](C[C@H](C(C)C)N(C)C(=O)[C@@H](NC(=O)[C@H]2C[C@H](O)CCN2C)C(C)C)OC(C)=O)sc1C(C)C
-65.9

What value of growth has been recorded for this entry: O=C(O)C(O)C(O)C1[O][Sb]([c]2ccc([N+](=O)[O-])cc2)[O]C1CO (stereo not drawn)
115

Need growth, item COC(=O)[C@@H](C)C[C@H](Cc1ccccc1)NC(=O)c1nc([C@@H](C[C@H](C(C)C)N(C)C(=O)[C@@H](NC(=O)[C@H]2CCCCN2C)C(C)C)OC(C)=O)sc1C
-36.5

Suppose we examine the compound C[CH2][Sn]([Cl])([Cl])[CH2]C.Oc1ccccc1C=NCCN=Cc1ccccc1O ; what growth value has been reported?
116

So what's the measured growth for this one? CC(=O)ONc1ccc([N+](=O)[O-])c(C(F)(F)F)c1
106

Given the compound COc1cccc2c1c(C(=O)c1ccco1)cn2Cc1ccc(F)cc1 , what is its reported growth?
123

Reported growth, compound O=[N+]([O-])c1ccc([Se]C2CCCCC2Cl)c([N+](=O)[O-])c1 (stereo not drawn) : ____
102

Tell me the measured growth of COc1ccc(C2=CC(c3ccc(OC)c(OC)c3)c3c(c4ccccc4oc3=O)O2)cc1OC (stereo not drawn) , please.
9.01

Please look up its growth: C=CCCCN=C=S
91.2
